Source: patent US9108921B2

// AC50 lookup, one value per entry
- target-system: PKR R510Q (Homo sapiens, UniProt P30613, R510Q)
- Sequence (P30613 whole entry R510Q): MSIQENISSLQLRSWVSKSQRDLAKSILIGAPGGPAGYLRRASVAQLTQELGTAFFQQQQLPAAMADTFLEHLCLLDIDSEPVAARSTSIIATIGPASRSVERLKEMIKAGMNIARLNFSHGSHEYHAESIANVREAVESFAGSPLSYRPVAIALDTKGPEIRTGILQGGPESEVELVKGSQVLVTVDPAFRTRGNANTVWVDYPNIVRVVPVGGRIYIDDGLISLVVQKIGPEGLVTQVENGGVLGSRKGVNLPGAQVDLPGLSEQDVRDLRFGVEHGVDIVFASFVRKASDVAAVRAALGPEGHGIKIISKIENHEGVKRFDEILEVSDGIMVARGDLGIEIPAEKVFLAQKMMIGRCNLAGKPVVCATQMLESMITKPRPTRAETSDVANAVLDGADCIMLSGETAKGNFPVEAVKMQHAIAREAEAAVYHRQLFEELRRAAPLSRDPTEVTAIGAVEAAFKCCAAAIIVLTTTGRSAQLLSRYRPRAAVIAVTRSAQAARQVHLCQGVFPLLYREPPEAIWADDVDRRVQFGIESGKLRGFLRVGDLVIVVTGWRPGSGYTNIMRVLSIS
- protocol-details: PKR Mutant Assay, AC50 against PKR R510Q
- Assay type: biochemical
- experimental-parameters: mutant PKR R510Q enzyme

See these solved cases before continuing.
compound	target-system	AC50
CN1C(=O)C=C2C=C(S(=O)(=O)Nc3ccc(C(=O)N4CCC(O)(Cc5ccccc5)CC4)cc3)C=CC21 (stereo not shown)	PKR R510Q (Homo sapiens, UniProt P30613, R510Q)	1010 to 10000 nM
CS(=O)(=O)c1cccc(C2(O)CCN(C(=O)c3ccc(NS(=O)(=O)c4cccc5cccnc45)cc3)CC2)c1	PKR R510Q (Homo sapiens, UniProt P30613, R510Q)	1010 to 10000 nM
O=C(c1ccc(NS(=O)(=O)c2cccc3scnc23)cc1)N1CCC(O)(CC2CC2(F)F)CC1 (stereo not shown)	PKR R510Q (Homo sapiens, UniProt P30613, R510Q)	101 to 1000 nM
O=C(c1ccc(NS(=O)(=O)c2cccc3scnc23)cc1)N1CCC(O)(CC2CC2)CC1	PKR R510Q (Homo sapiens, UniProt P30613, R510Q)	101 to 1000 nM
O=C(c1ccc(NS(=O)(=O)c2cccc3scnc23)cc1)N1CCC(O)(/C=C/CC(F)(F)F)CC1	PKR R510Q (Homo sapiens, UniProt P30613, R510Q)	< 100 nM
O=C(c1ccc(NS(=O)(=O)c2cccc3csnc23)cc1)N1CCC(O)(c2ccccc2Cl)CC1	PKR R510Q (Homo sapiens, UniProt P30613, R510Q)	1010 to 10000 nM

With those in mind, consider the next compound.
Inquiry: Request the reported AC50 associated with O=C(c1ccc(NS(=O)(=O)c2cccc3cccnc23)cc1)N1CCC(O)(c2ccccc2C(F)F)CC1
Reply text: < 100 nM
